tested on: S. aureus ATCC 25923; assay: microbe, parasite or virus in culture; conditions: ATCC 25923, 18 h
Where a SMILES comes first, the peptide text is derived from it. Bridges are numbered along the chain shown (N, C = ends). [ ]: non-standard residue; d: D form. The star is where a group is joined. Hexanoyl(6-Ph) = O=C(CCCCCc1ccccc1)*; dDab = NCC[C@@H](N)C(=O)O; Octanoyl = CCCCCCCC(=O)*; Dab = NCC[C@H](N)C(=O)O
Below, each entry is listed with its recorded MIC S. aureus ATCC 25923.

// known answers, use as guide
compound: CC(C)C[C@@H]1NC(=O)[C@@H](Cc2ccccc2)NC(=O)[C@H](CCN)NC(=O)[C@@H](NC(=O)[C@@H](CCN)NC(=O)[C@@H](NC(=O)CCCCCc2ccccc2)[C@@H](C)O)CCNC(=O)[C@H]([C@@H](C)O)NC(=O)[C@H](CCN)NC(=O)[C@H](CCN)NC1=O [Compound 25] ({Hexanoyl(6-Ph)}-T[dDab][Dab][Dab][dF]L[Dab][Dab]T; lactam 3-C)
targetOfAssay: S. aureus ATCC 25923
experimentalValue: >32 µg/mL
--
compound: CCCCCCCC(=O)N[C@H](C(=O)N[C@H](CO)C(=O)N[C@H]1CCNC(=O)[C@H]([C@@H](C)O)NC(=O)[C@H](CCN)NC(=O)[C@H](CCN)NC(=O)[C@H](CC(C)C)NC(=O)[C@@H](Cc2ccccc2)NC(=O)[C@H](CCN)NC1=O)[C@@H](C)O [Compound 36] (Octanoyl-T[dS][Dab][Dab][dF]L[Dab][Dab]T; lactam 3-C)
targetOfAssay: S. aureus ATCC 25923
experimentalValue: >32 µg/mL

Let us examine a further case.
Which MIC S. aureus ATCC 25923 value belongs to CC(C)C[C@@H]1NC(=O)[C@@H](Cc2ccccc2)NC(=O)[C@H](CCN)NC(=O)[C@@H](NC(=O)[C@H](CCN)NC(=O)[C@@H](NC(=O)CCCCCc2ccccc2)[C@@H](C)O)CCNC(=O)[C@H]([C@@H](C)O)NC(=O)[C@H](CCN)NC(=O)[C@H](CCN)NC1=O [Compound 13] ({Hexanoyl(6-Ph)}-T[Dab][Dab][Dab][dF]L[Dab][Dab]T; lactam 3-C) ?
>32 µg/mL

###

Below, each entry is listed with its recorded MIC E. coli ATCC 25922.
system: E. coli ATCC 25922; test: microbe, parasite or virus in culture; details: ATCC 25922, 18 h
Where a SMILES comes first, the peptide text is derived from it. Bridges are numbered along the chain shown (N, C = ends). [ ]: non-standard residue; d: D form. The star is where a group is joined. Decanoyl(3R-OH) = CCCCCCC[C@@H](O)CC(=O)*; X2 = CCCCCOc1cccc(C(=O)*)c1; Dab = NCC[C@H](N)C(=O)O
# unit: µg/mL | format: bare number

compound: CCCCCOc1cccc(C(=O)N[C@H](C(=O)N[C@@H](CCN)C(=O)N[C@H]2CCNC(=O)[C@H]([C@@H](C)O)NC(=O)[C@H](CCN)NC(=O)[C@H](CCN)NC(=O)[C@H](CC(C)C)NC(=O)[C@@H](Cc3ccccc3)NC(=O)[C@H](CCN)NC2=O)[C@@H](C)O)c1 [Compound 11] (X2-T[Dab][Dab][Dab][dF]L[Dab][Dab]T; lactam 3-C)
MIC E. coli ATCC 25922 (µg/mL): 8

Let us examine a further case.
Which MIC E. coli ATCC 25922 value belongs to CCCCCCC[C@@H](O)CC(=O)N[C@H](C(=O)NCC(=O)N[C@H]1CCNC(=O)[C@H]([C@@H](C)O)NC(=O)[C@H](CCN)NC(=O)[C@H](CCN)NC(=O)[C@H](CC(C)C)NC(=O)[C@@H](Cc2ccccc2)NC(=O)[C@H](CCN)NC1=O)[C@@H](C)O [Compound 52] ({Decanoyl(3R-OH)}-TG[Dab][Dab][dF]L[Dab][Dab]T; lactam 3-C) ?
1
